Attribution: patent US5856341A

Test system: serum cholesterol
Procedure Summary: Serum cholesterol in ovariectomized rats (Cholesterol Analysis)
Type: in vivo, Sprague Dawley rats
Measurement Parameters: 1 mg/kg PO, daily for 4 days, OVX rats
Use criterion met when the recorded Serum Cholest. % Decrease verses ovariectomized controls is no lower than 50%; use criterion not met when it is lower.

- COc1ccc2c(c1)-c1sc3cc(OC)ccc3c1C2c1ccc(OCCN2CCCCC2)cc1 (stereo not drawn): criterion not met

API: above_or_equal(metric=Serum Cholest. % Decrease verses ovariectomized controls, cutoff=50%) for item c1ccc2c(c1)-c1sc3ccccc3c1C2c1ccc(OCCN2CCCCC2)cc1 (stereo not drawn)
criterion met

Please indicate if the recorded Serum Cholest. % Decrease verses ovariectomized controls for Oc1ccc2c(c1)-c1sc3cc(O)ccc3c1C2c1ccc(OCCN2CCCCC2)cc1 (stereo not drawn) meets or exceeds 50%.
criterion met

Hello, I need to know if COc1ccc2c(c1)C(O)(c1ccc(OCCN3CCCCC3)cc1)c1c-2sc2cc(OC)ccc12 (stereo not drawn) has measured Serum Cholest. % Decrease verses ovariectomized controls not below 50%. Thanks!
criterion met

Could you verify whether the entry COc1ccc2c3c(sc2c1)-c1ccccc1C3c1ccc(OCCN2CCCCC2)cc1 (stereo not drawn) shows Serum Cholest. % Decrease verses ovariectomized controls of no less than 50%?
criterion met

Reported Serum Cholest. % Decrease verses ovariectomized controls reaches at least 50% for Cl.Oc1ccc2c3c(sc2c1)-c1ccccc1C3c1ccc(OCCN2CCCCC2)cc1 (stereo not drawn) ?
criterion not met
